Target: recombinant PRL-2 (Homo sapiens, UniProt Q12974)
Construct: 6xHis (N, cleaved yes); made in house; host or cells: E. coli One Shot BL21 Star
Sequence (Q12974 1-167): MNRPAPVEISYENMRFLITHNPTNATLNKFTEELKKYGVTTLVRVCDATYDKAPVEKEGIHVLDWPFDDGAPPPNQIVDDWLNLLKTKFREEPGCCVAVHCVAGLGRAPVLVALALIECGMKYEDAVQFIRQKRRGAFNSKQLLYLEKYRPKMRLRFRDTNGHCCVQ
Assay: In vitro phosphatase assay (DiFMUP hydrolysis), PRL-2
Type: biochemical
Details: FDA-approved drug screen; compared to DMSO
Would you kindly list % Phosphatase Activity (compared to DMSO) PRL-2 for each of these compounds?
Number first, unit second: that is the form wanted.

Notebook: COc1cc2c(cc1OC)CN(CCc1ccc(NC(=O)c3cccc4c(=O)c5cccc(OC)c5[nH]c34)cc1)CC2 , % Phosphatase Activity (compared to DMSO) PRL-2 read as 104%

Notebook: Nc1nc2c(ncn2CCC(CO)CO)c(=O)[nH]1 , % Phosphatase Activity (compared to DMSO) PRL-2 read as 95%

Notebook: O.O.O.O.O=C([O-])CC(O)(CC(=O)[O-])C(=O)[O-].[Li+].[Li+].[Li+] [Citric acid trilithium salt tetrahydrate] , % Phosphatase Activity (compared to DMSO) PRL-2 read as 92%

Notebook: CC(O)(P(=O)(O)O)P(=O)(O)O [Etidronate] , % Phosphatase Activity (compared to DMSO) PRL-2 read as 100%

* * *

Molecular target: recombinant PRL-2 (Homo sapiens)
Construct: 6xHis (N, cleaved yes); made in house; host or cells: E. coli One Shot BL21 Star
Experiment: In vitro phosphatase assay (DiFMUP hydrolysis), PRL-2;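 note: PRL-2 activity read as DiFMUP hydrolysis after 20 min at room temperature with drug, enzyme first pre-reduced at 4 °C for 20 min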
Format: biochemical
Conditions: FDA-approved drug screen; compared to DMSO
ENDPOINT: % Phosphatase Activity (compared to DMSO) PRL-2 (%)
Answer in %, number only, no unit symbol.

Item Cn1c(=O)c2c(ncn2CC2OCCO2)n(C)c1=O ; assay system recombinant PRL-2 (Homo sapiens); % Phosphatase Activity (compared to DMSO) PRL-2 reported as 109

Item COc1ccc(C(=O)NCc2ccc(OCCN(C)C)cc2)cc1OC.Cl [Itopride hydrochloride] ; assay system recombinant PRL-2 (Homo sapiens); % Phosphatase Activity (compared to DMSO) PRL-2 reported as 115

Item C[C@H](CCC(=O)O)[C@H]1CC[C@H]2[C@@H]3CC[C@@H]4C[C@H](O)CC[C@]4(C)[C@H]3CC[C@]12C ; assay system recombinant PRL-2 (Homo sapiens); % Phosphatase Activity (compared to DMSO) PRL-2 reported as 75

Item CO[C@H]1/C=C/O[C@@]2(C)Oc3c(C)c(O)c4c(O)c(c(/C=N/N5CCN(C6CCCC6)CC5)c(O)c4c3C2=O)NC(=O)/C(C)=C\C=C\[C@H](C)[C@H](O)[C@@H](C)[C@@H](O)[C@@H](C)[C@H](OC(C)=O)[C@@H]1C ; assay system recombinant PRL-2 (Homo sapiens); % Phosphatase Activity (compared to DMSO) PRL-2 reported as 57

Item Cc1nc2ccc(CN(C)c3ccc(C(=O)N[C@@H](CCC(=O)O)C(=O)O)s3)cc2c(=O)[nH]1 ; assay system recombinant PRL-2 (Homo sapiens); % Phosphatase Activity (compared to DMSO) PRL-2 reported as 71

Item C[C@@](Cc1ccc(O)c(O)c1)(NN)C(=O)O ; assay system recombinant PRL-2 (Homo sapiens); % Phosphatase Activity (compared to DMSO) PRL-2 reported as 92

Item Cl.Nc1c(Br)cc(Br)cc1CN[C@H]1CC[C@H](O)CC1 [Ambroxol HCl] ; assay system recombinant PRL-2 (Homo sapiens); % Phosphatase Activity (compared to DMSO) PRL-2 reported as 117

* * *

Molecular target: recombinant PRL-1 (Homo sapiens, UniProt Q93096)
Construct: 6xHis (N, cleaved yes); made in house; host or cells: E. coli One Shot BL21 Star
Sequence (Q93096 whole entry): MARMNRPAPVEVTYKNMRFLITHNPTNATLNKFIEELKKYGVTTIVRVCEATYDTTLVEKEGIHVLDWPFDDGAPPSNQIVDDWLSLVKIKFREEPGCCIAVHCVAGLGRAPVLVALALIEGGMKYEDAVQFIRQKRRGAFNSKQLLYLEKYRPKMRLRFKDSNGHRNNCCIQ
Experiment: In vitro phosphatase assay (DiFMUP hydrolysis), PRL-1; note: test concentration or dose not given here
Type: biochemical
Structures can show the parent of a compound that is named as a salt.
ENDPOINT: % Phosphatase Activity (compared to DMSO) PRL-1 (%)
Answer in %, number only, no unit symbol.

Notebook: Clc1ccc2nsnc2c1NC1=NCCN1 [Tizanidine HCl] , % Phosphatase Activity (compared to DMSO) PRL-1 read as 93

Notebook: O=P1(N(CCCl)CCCl)NCCCO1 (centres unmarked) [Cyclophosphamide Monohydrate] , % Phosphatase Activity (compared to DMSO) PRL-1 read as 90

Notebook: CC1(C)S[C@@H]2[C@H](NC(=O)[C@H](N)c3ccc(O)cc3)C(=O)N2[C@H]1C(=O)[O-].[Na+] [Amoxicillin Sodium] , % Phosphatase Activity (compared to DMSO) PRL-1 read as 97

Notebook: Cc1cccc(C)c1OCC(C)N (centres unmarked) [Mexiletine HCl] , % Phosphatase Activity (compared to DMSO) PRL-1 read as 98

Notebook: OC(CCN1CCCCC1)(c1ccccc1)C1CCCCC1 (centres unmarked) [Trihexyphenidyl hydrochloride] , % Phosphatase Activity (compared to DMSO) PRL-1 read as 100

* * *

Would you kindly list % Phosphatase Activity (compared to DMSO) PRL-1 for each of these compounds?
Target: recombinant PRL-1 (Homo sapiens, UniProt Q93096)
Construct: 6xHis (N, cleaved yes); made in house; host or cells: E. coli One Shot BL21 Star
Experiment: In vitro phosphatase assay (DiFMUP hydrolysis), PRL-1; note: test concentration or dose not given here
Type: biochemical
Settings: FDA-approved drug screen; compared to DMSO
Structures can show the parent of a compound that is named as a salt.
Answer in %, number only, no unit symbol.

Notebook: O=C(O)P(=O)(O)O [Foscarnet Sodium] , % Phosphatase Activity (compared to DMSO) PRL-1 read as 109

Notebook: CS(=O)(=O)OCCCCOS(C)(=O)=O , % Phosphatase Activity (compared to DMSO) PRL-1 read as 103

Notebook: CCC1(c2cnc[nH]2)Cc2ccccc2C1 , % Phosphatase Activity (compared to DMSO) PRL-1 read as 94

Notebook: Cc1cc2c(s1)Nc1ccccc1N=C2N1CCN(C)CC1 , % Phosphatase Activity (compared to DMSO) PRL-1 read as 99

Notebook: C#Cc1cccc(Nc2ncnc3cc(OCCOC)c(OCCOC)cc23)c1.Cl [Erlotinib HCl (OSI-744)] , % Phosphatase Activity (compared to DMSO) PRL-1 read as 110

Notebook: CC(=O)Oc1cc2c(s1)CCN(C(C(=O)C1CC1)c1ccccc1F)C2 (centres unmarked) [Prasugrel Hydrochloride] , % Phosphatase Activity (compared to DMSO) PRL-1 read as 92

Notebook: CC(C)c1nc(CN(C)C(=O)N[C@@H](CCN2CCOCC2)C(=O)N[C@H](CC[C@H](Cc2ccccc2)NC(=O)OCc2cncs2)Cc2ccccc2)cs1 [Cobicistat (GS-9350)] , % Phosphatase Activity (compared to DMSO) PRL-1 read as 88

Notebook: NC(=O)[C@@H](CCC(F)(F)F)N(Cc1ccc(-c2ncon2)cc1F)S(=O)(=O)c1ccc(Cl)cc1 , % Phosphatase Activity (compared to DMSO) PRL-1 read as 89

* * *

Target: recombinant PRL-1 (Homo sapiens, UniProt Q93096)
Construct: 6xHis (N, cleaved yes); made in house; host or cells: E. coli One Shot BL21 Star
Assay: In vitro phosphatase assay (DiFMUP hydrolysis), PRL-1; note: test concentration or dose not given here
Assay type: biochemical
Conditions: FDA-approved drug screen; compared to DMSO
Structures can show the parent of a compound that is named as a salt.
ENDPOINT: % Phosphatase Activity (compared to DMSO) PRL-1 (%)
Answer in %, number only, no unit symbol.

Notebook: COc1cc(C(=O)O)ccc1NC(=O)[C@@H]1N[C@@H](CC(C)(C)C)[C@](C#N)(c2ccc(Cl)cc2F)[C@H]1c1cccc(Cl)c1F [Idasanutlin (RG-7388)] , % Phosphatase Activity (compared to DMSO) PRL-1 read as 7

Notebook: C#C[C@]1(O)CC[C@H]2[C@@H]3CCC4=CC(=O)CC[C@@H]4[C@H]3C(=C)C[C@@]21CC [Etonogestrel] , % Phosphatase Activity (compared to DMSO) PRL-1 read as 90

Notebook: C=C1/C(=C\C=C2/CCC[C@]3(C)[C@@H]([C@H](C)CCCC(C)C)CC[C@@H]23)C[C@@H](O)C[C@@H]1O [Alfacalcidol] , % Phosphatase Activity (compared to DMSO) PRL-1 read as 99

Notebook: COc1cc2nc(N3CCN(C(=O)c4ccco4)CC3)nc(N)c2cc1OC [Prazosin HCl] , % Phosphatase Activity (compared to DMSO) PRL-1 read as 460

Notebook: CN(C)CCN1C(=O)c2cccc3cc(N)cc(c23)C1=O [Amonafide] , % Phosphatase Activity (compared to DMSO) PRL-1 read as 89

Notebook: NC(=O)N1c2ccccc2CC(=O)c2ccccc21 [Oxcarbazepine] , % Phosphatase Activity (compared to DMSO) PRL-1 read as 104

Notebook: C[C@H](CCC(=O)O)[C@H]1CC[C@H]2[C@@H]3[C@H](O)C[C@@H]4C[C@H](O)CC[C@]4(C)[C@H]3CC[C@]12C [Chenodeoxycholic Acid] , % Phosphatase Activity (compared to DMSO) PRL-1 read as 87
